- Measurement Protocol: Inhibition of recombinant human airway trypsin-like protease by fluorescence assay
Quick reference: Ki of the listed items.
Number in nM, nothing else.

CNC(=O)NCCC1CCN(C(=O)[C@H](Cc2cccc(C(=N)N)c2)NS(=O)(=O)c2cccc(-c3ccc(Cl)cc3Cl)c2)CC1 :: 170
COc1ccc(-c2cccc(S(=O)(=O)N[C@@H](Cc3cccc(C(=N)N)c3)C(=O)N3CCC(NC(=O)NC4CCCCC4)CC3)c2)c(OC)c1 :: 830
CNC(=O)NCCC1CCN(C(=O)[C@H](Cc2cccc(C(=N)N)c2)NS(=O)(=O)c2cccc(-c3ccc(OC)cc3OC)c2)CC1 :: 110

Now look at this entry.
I am curious: what Ki value has been reported for N=C(N)c1cccc(C[C@H](NS(=O)(=O)c2cccc(-c3ccc(Cl)cc3Cl)c2)C(=O)N2CCC(NC(=O)NC3CCCCC3)CC2)c1 ? 2700
